Tested on: RS4-11 (B-Lymphoblastic Leukemia);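 note: after 72 h of two-drug dosing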
Assay: Bliss excess, mean over the matrix (fraction); higher = more synergy
value.type: Bliss excess

CN(CCO)CC[C@H](CSc1ccccc1)Nc1ccc(S(=O)(=O)NC(=O)c2ccc(N3CCC([C@@H](O)c4ccccc4-c4ccc(Cl)cc4)CC3)cc2)cc1S(=O)(=O)C(F)(F)F [AZD4320] + Cc1cc2ncnn2cc1Nc1ncc2c(n1)n(C1CCOCC1)c(=O)n2C [AZD7648] (first compound max 1 µM, 7x7, partner max 10 µM)    -0.0148
COc1cccc2c1C(=O)c1c(O)c3c(c(O)c1C2=O)C[C@@](O)(C(=O)CO)C[C@@H]3O[C@H]1C[C@H](N)[C@H](O)[C@H](C)O1 [Doxorubicin] + Cc1cc2ncnn2cc1Nc1ncc2c(n1)n(C1CCOCC1)c(=O)n2C [AZD7648] (first compound max 1 µM, 7x7, partner max 10 µM)    0.171
Cc1cc2ncnn2cc1Nc1ncc2c(n1)n(C1CCOCC1)c(=O)n2C [AZD7648] + CCN(CCO)CCCOc1ccc2c(Nc3cc(CC(=O)Nc4cccc(F)c4)[nH]n3)ncnc2c1 [AZD2811] (first compound max 10 µM, 7x7, partner max 1 µM)    -0.0355
COc1cccc(OCCCN)c1-c1cc(Nc2cnc(C#N)cn2)n[nH]1 [Prexasertib] + CCc1c2c(nc3ccc(O)cc13)-c1cc3c(c(=O)n1C2)COC(=O)[C@]3(O)CC [SN-38] (first compound max 1 µM, 7x7, partner max 0.3 µM)    0.0066
CN(CCO)CC[C@H](CSc1ccccc1)Nc1ccc(S(=O)(=O)NC(=O)c2ccc(N3CCC([C@@H](O)c4ccccc4-c4ccc(Cl)cc4)CC3)cc2)cc1S(=O)(=O)C(F)(F)F [AZD4320] + C[C@@H](Nc1cc(F)cc(F)c1)c1cc(C(=O)N(C)C)cc2c(=O)cc(N3CCOCC3)oc12 [AZD8186] (first compound max 1 µM, 7x7, partner max 3 µM)    0.0239

Query :: Give the measured Bliss excess of COc1nnc2ccc(N3CCC(c4ccc(OCCN5CCN(C)C(=O)[C@H]5C)cc4)CC3)nn12 [AZD5153] + CCN(CCO)CCCOc1ccc2c(Nc3cc(CC(=O)Nc4cccc(F)c4)[nH]n3)ncnc2c1 [AZD2811] (first compound max 1 µM, 7x7, partner max 1 µM) .
Result :: -0.0195

Query :: Given the molecule CCc1c2c(nc3ccc(O)cc13)-c1cc3c(c(=O)n1C2)COC(=O)[C@]3(O)CC [SN-38] + CN(C)CCCOc1ccc(-c2ccc3ncc4c(c3c2)n(C2CCOCC2)c(=O)n4C)cn1 [AZD0156] (first compound max 0.3 µM, 7x7, partner max 1 µM) , what is its reported Bliss excess?
Result :: -0.0347
